# assay-info: AUC(0 to infinity) in Sprague-Dawley rat at 5 mg/kg, iv measured upto 24 hrs by LC/MS/MS analysis
# Assay type: ADME, organism-based
# Design: dose 5 mg/kg, time < 24 hrs, route iv
# measurement-context: in vivo
measure-name: AUC(0-inf) (ng·h/mL)
Express your answer in ng·h/mL, writing the number without its unit.

Reported AUC(0-inf), compound `C=CC(=O)Nc1ccc(Oc2ccc(NC(=O)Nc3ccc(CN4CCN(C)CC4)c(C(F)(F)F)c3)cc2)cn1` : ____
4260

###

# assay-info: Half life in Sprague-Dawley rat at 5 mg/kg, iv measured upto 24 hrs by LC/MS/MS analysis
# Format: ADME, organism-based
# measurement-context: in vivo
measure-name: half-life (h)
Express your answer in h, writing the number without its unit.

Reported half-life, compound `C=CC(=O)Nc1ccc(Oc2ccc(NC(=O)Nc3ccc(CN4CCN(C)CC4)c(C(F)(F)F)c3)cc2)cn1` : ____
4.75

###

Overview of reported pIC50 across a group of molecules:
# Test system: Huh-7
# assay-info: Antiproliferative activity against human Huh-7 cells assessed as inhibition of cell growth measured after 72 hrs by CCK8 assay
# Assay type: functional, cell-based
# measurement-context: Huh-7, 72 h
Schema: pIC50 number; meaning minus log10 of the concentration expressed in molar units.

Solved entries (count: 5):
Item `C=CC(=O)Nc1ccc(-c2ccc(NC(=O)Nc3ccc(CN4CCN(C)CC4)c(C(F)(F)F)c3)c(C)c2)cn1` with Huh-7 - pIC50?
5.47

Quick one: `C=CC(=O)Nc1ccc(Oc2ccc(NC(=O)Nc3ccc(CN4CCN(C)CC4)c(C(F)(F)F)c3)cc2)cn1`
6.60

Quick one: `Cc1cc(-c2ccc(NC(=O)CCl)nc2)ccc1NC(=O)Nc1ccc(CN2CCN(C)CC2)c(C(F)(F)F)c1`
4.67

Quick one: Cc1ccc(C(=O)Nc2ccc(CN3CCN(C)CC3)c(C(F)(F)F)c2)cc1C#Cc1cnc2cccnn12 [PONATINIB]
6.00

Quick one: `C=CC(=O)Nc1ccc(-c2ccc(NC(=O)Nc3ccc(CN4CCN(C)CC4)c(C(F)(F)F)c3)c(Cl)c2)cn1`
5.79

Others:
Item `C=C(F)C(=O)Nc1ccc(-c2ccc(NC(=O)Nc3ccc(CN4CCN(C)CC4)c(C(F)(F)F)c3)c(C)c2)cn1` with Huh-7 - pIC50?
5.47

Quick one: `C/C=C/C(=O)Nc1ccc(Oc2ccc(NC(=O)Nc3ccc(CN4CCN(C)CC4)c(C(F)(F)F)c3)c(C)c2)cn1`
5.99

###

# Tested on: Hep 3B2
# assay-info: Antiproliferative activity against human Hep3B cells assessed as inhibition of cell growth measured after 72 hrs by CCK8 assay
# Type: functional, cell-based
measure-name: IC50 (nM)
Express your answer in nM, writing the number without its unit.

Reported IC50, compound `C/C=C/C(=O)Nc1ccc(Oc2ccc(NC(=O)Nc3ccc(CN4CCN(C)CC4)c(C(F)(F)F)c3)c(C)c2)cn1` : ____
1120

Others:
Reported IC50, compound `C=C(F)C(=O)Nc1ccc(-c2ccc(NC(=O)Nc3ccc(CN4CCN(C)CC4)c(C(F)(F)F)c3)c(C)c2)cn1` : ____
3240

Quick one: `C=CC(=O)Nc1ccc(Oc2ccc(NC(=O)Nc3ccc(CN4CCN(C)CC4)c(C(F)(F)F)c3)cc2)cn1`
220

Quick one: `C=CC(=O)Nc1ccc(-c2ccc(NC(=O)Nc3ccc(CN4CCN(C)CC4)c(C(F)(F)F)c3)c(Cl)c2)cn1`
1270

Quick one: `Cc1cc(-c2ccc(NC(=O)CCl)nc2)ccc1NC(=O)Nc1ccc(CN2CCN(C)CC2)c(C(F)(F)F)c1`
22100

Quick one: `C=CC(=O)Nc1ccc(-c2ccc(NC(=O)Nc3ccc(CN4CCN(C)CC4)c(C(F)(F)F)c3)c(C)c2)cn1`
3180

Quick one: `Cc1ccc(C(=O)Nc2ccc(CN3CCN(C)CC3)c(C(F)(F)F)c2)cc1C#Cc1cnc2cccnn12`
720
